Data provenance: ChEMBL document CHEMBL4390639

# target-system: Protein disulfide-isomerase (Homo sapiens)
# experiment-notes: Inhibition of recombinant human N-terminal His-tagged PDI expressed in Escherichia coli BL21 (DE3) pLysS assessed as reduction in enzyme-mediated bovine insulin aggregation
Please provide measured IC50 for the entries that follow.
Enter your answer as a number in µM; do not include the unit.

Query string: Param request: IC50 | system Protein disulfide-isomerase (Homo sapiens) | item COC(=O)c1cccc(/C=C/C(=O)c2ccc(O)cc2)c1
Result string: 0.4

Query string: Quote IC50 with test system Protein disulfide-isomerase (Homo sapiens) for N#Cc1ccc(/C=C/C(=O)c2ccc(O)cc2)cc1
Result string: 0.74

Query string: Give Protein disulfide-isomerase (Homo sapiens) IC50 for the following molecule: O=C(/C=C/c1ccc(-c2cccnc2)cc1)c1cccc(O)c1
Result string: 0.35

Query string: Consider the molecule N#Cc1cccc(/C=C/C(=O)c2cccc(O)c2)c1 tested on Protein disulfide-isomerase (Homo sapiens); state its IC50.
Result string: 1.87

* * *

# Test system: HFF-1
# experiment-notes: Cytotoxicity against HFF1 cells assessed as inhibition of cell growth measured after 72 hrs by MTT assay
# Type: cell-based
# condition-parameters: Homo sapiens, HFF-1, 72 h
Please provide measured IC50 for the entries that follow.
Reply with just the number (in µM).

Query string: State, for HFF-1, measured IC50 of the compound listed here: CCCCCN(CCCCC)S(=O)(=O)c1ccc(C(=O)/C=C/c2cccc(O)c2)cc1
Result string: 29.2

Query string: Enter recorded IC50 with HFF-1 for O=C(/C=C/c1ccc(-c2cccnc2)cc1)c1cccc(O)c1 here.
Result string: 22.5

Query string: Lab note: HFF-1 assay, enter IC50 for O=C(/C=C/c1ccc(-c2ccncc2)cc1)c1cccc(O)c1 here
Result string: 31.8

Query string: With HFF-1 as the test system, provide measured IC50 for this compound: COC(=O)c1cccc(/C=C/C(=O)c2cccc(O)c2)c1
Result string: 17.4

Query string: Provide the reported IC50 (system: HFF-1) for N#Cc1cccc(/C=C/C(=O)c2ccc(O)cc2)c1
Result string: 91.2

Query string: Give IC50 only, for CCCCCN(CCCCC)S(=O)(=O)c1ccc(C(=O)/C=C/c2cccc(C#N)c2)cc1 , using HFF-1 data.
Result string: 3.4

* * *

# target-system: Protein disulfide-isomerase (Homo sapiens, UniProt P07237)
# Sequence (P07237 whole entry): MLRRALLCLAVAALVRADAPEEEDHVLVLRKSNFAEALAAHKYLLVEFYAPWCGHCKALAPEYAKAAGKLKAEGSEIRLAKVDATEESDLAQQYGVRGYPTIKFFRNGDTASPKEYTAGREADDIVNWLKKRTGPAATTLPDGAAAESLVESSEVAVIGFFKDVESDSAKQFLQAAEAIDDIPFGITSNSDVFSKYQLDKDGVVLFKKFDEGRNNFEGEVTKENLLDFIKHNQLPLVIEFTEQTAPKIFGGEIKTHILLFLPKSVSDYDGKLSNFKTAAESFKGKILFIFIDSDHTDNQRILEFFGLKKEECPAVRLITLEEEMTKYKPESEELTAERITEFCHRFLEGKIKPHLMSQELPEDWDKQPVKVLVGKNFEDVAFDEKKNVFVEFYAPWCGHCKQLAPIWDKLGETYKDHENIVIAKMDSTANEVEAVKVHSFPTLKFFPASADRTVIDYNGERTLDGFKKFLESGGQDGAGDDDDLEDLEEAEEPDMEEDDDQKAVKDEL
# experiment-notes: Inhibition of recombinant human N-terminal His-tagged PDI expressed in Escherichia coli BL21 (DE3) pLysS assessed as reduction in enzyme-mediated bovine insulin aggregation
parameter: IC50

Query string: With Protein disulfide-isomerase (Homo sapiens, UniProt P07237) as the test system, provide measured IC50 for this compound: COc1ccc(/C=C/C(=O)c2ccc(NC(=O)c3cccs3)cc2)cc1
Result string: > 500 µM

Query string: Fetch value of IC50 on Protein disulfide-isomerase (Homo sapiens, UniProt P07237) for COc1ccc(C(=O)/C=C/c2cccc(C#N)c2)cc1 .
Result string: > 500 µM

Query string: State IC50 (Protein disulfide-isomerase (Homo sapiens, UniProt P07237)) of N#Cc1cccc(/C=C/C(=O)c2ccc(N)cc2)c1 .
Result string: > 500 µM

Query string: Specify the recorded IC50 for Nc1ccc(C(=O)/C=C/c2cccc(C(=O)O)c2)cc1 , system: Protein disulfide-isomerase (Homo sapiens, UniProt P07237).
Result string: > 100 µM
